The measured values listed here are drawn from patent US20110065652A1.

- targetEntity: melanocortin-1 receptor (MC1-R), endogenous in B-16 mouse melanoma cells (mouse) (UniProt Q01727)
- Sequence (Q01727 whole entry): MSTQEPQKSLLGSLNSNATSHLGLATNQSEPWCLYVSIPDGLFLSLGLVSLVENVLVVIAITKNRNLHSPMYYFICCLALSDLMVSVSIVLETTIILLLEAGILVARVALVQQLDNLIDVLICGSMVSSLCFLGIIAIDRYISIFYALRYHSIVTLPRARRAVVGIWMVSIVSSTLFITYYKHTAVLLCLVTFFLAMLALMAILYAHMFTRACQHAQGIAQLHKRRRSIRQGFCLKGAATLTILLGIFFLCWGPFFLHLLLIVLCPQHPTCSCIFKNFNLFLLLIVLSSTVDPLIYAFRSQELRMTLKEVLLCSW
- protocol: competitive binding against [I125]-NDP-α-MSH, B-16 mouse melanoma membranes
pKi: −log10 of the molar value. Bridge positions count the residues as written; N and C are the ends. Square brackets hold non-standard residues; d marks the D form. Orn = NCCC[C@H](N)C(=O)O; Dab = NCC[C@H](N)C(=O)O
Below, each entry is listed with its recorded pKi.

binder	pKi
Ac-RE[Dab][dF]RW[Orn]-OH (lactam 2-7; also: acetate and TFA salts) [cyclic peptide of Example 8.4, Ac-Arg-cyclo(Glu-Dab-D-Phe-Arg-Trp-Orn)-OH]	8.40
Ac-RE[Dab][dF]RW[Orn]-NH2 (lactam 2-7; also: TFA salt) [cyclic peptide of Example 8.3, Ac-Arg-cyclo(Glu-Dab-D-Phe-Arg-Trp-Orn)-NH2]	9.00
